Tested on: midbrain dopaminergic neurons
Assay: Dopamine (DA) uptake assay in primary midbrain cultures
Type: cell-based, rat
Conditions: Rattus norvegicus, Neuron, compound concentration 20 μM; midbrain culture; read-out: DA uptake % of control
# Lookup of reported activity at 20 µM keyed by entry
Quantity Measured: activity at 20 µM (%)

[[record]]
given_smiles = "CCc1nnc(NS(=O)(=O)c2ccc(NC(=O)c3ccc(Cl)cc3)cc2)s1"
assay_value = 140

[[record]]
given_smiles = "O=C(/C=C/c1ccccc1)Nc1ccc(S(=O)(=O)Nc2ccccn2)cc1"
assay_value = 180

[[record]]
given_smiles = "Cc1ccc(C(=O)Nc2ccc(S(=O)(=O)Nc3nccs3)cc2)cc1"
assay_value = 140

[[record]]
given_smiles = "COc1ccc(/C=C/C(=O)Nc2ccc(S(=O)(=O)Nc3ccccn3)cc2)cc1"
assay_value = 180

[[record]]
given_smiles = "O=C(/C=C/c1ccoc1)Nc1ccc(S(=O)(=O)Nc2nccs2)cc1"
assay_value = 240


----------
Tested on: midbrain dopaminergic neurons
Assay: Dopamine (DA) uptake assay in primary midbrain cultures
Assay type: cell-based, rat
Conditions: Rattus norvegicus, Neuron; midbrain culture, FIG. 36; read-out: half-maximal effective concentration (EC50) for DA uptake stimulation
pEC50: −log10 of the molar value.
Quantity Measured: pEC50

[[record]]
compound = "Cc1ccc(/C=C/C(=O)Nc2ccc(S(=O)(=O)Nc3cccs3)cc2)c(C)c1 [Compound Z′]"
quantity_measured = "pEC50"
assay_value = "~6.70"

[[record]]
compound = "O=C(/C=C/c1ccc(Br)cc1)Nc1ccc(S(=O)(=O)Nc2nc[nH]n2)cc1 [X′]"
quantity_measured = "pEC50"
assay_value = "~6.70"

[[record]]
compound = "O=C(Nc1ccc(S(=O)(=O)Nc2nc[nH]n2)cc1)c1ccc2ccccc2c1 [Y′]"
quantity_measured = "pEC50"
assay_value = "~6.70"


----------
Tested on: midbrain dopaminergic neurons
Experiment: Dopamine (DA) uptake assay in primary midbrain cultures
Type: cell-based, rat
Conditions: Rattus norvegicus, Neuron, compound concentration 20 μM; midbrain culture; read-out: DA uptake % of control
Quantity Measured: activity at 20 µM (%)

[[record]]
given_smiles = "COc1cc(OC)cc(C(=O)Nc2ccc(S(=O)(=O)Nc3nccs3)cc2)c1"
quantity_measured = "activity at 20 µM"
units_text = "%"
assay_value = 150

[[record]]
given_smiles = "O=C(COc1ccc(Cl)cc1)Nc1ccc(S(=O)(=O)Nc2nccs2)cc1"
quantity_measured = "activity at 20 µM"
units_text = "%"
assay_value = 210

[[record]]
given_smiles = "O=C(/C=C/c1ccc(F)cc1)Nc1ccc(S(=O)(=O)Nc2nccs2)cc1"
quantity_measured = "activity at 20 µM"
units_text = "%"
assay_value = 240

[[record]]
given_smiles = "Cc1cc(NS(=O)(=O)c2ccc(NC(=O)/C=C/c3ccccc3)cc2)no1"
quantity_measured = "activity at 20 µM"
units_text = "%"
assay_value = 140

[[record]]
given_smiles = "O=C(Nc1ccc(S(=O)(=O)Nc2nccs2)cc1)c1ccc(F)c(F)c1"
quantity_measured = "activity at 20 µM"
units_text = "%"
assay_value = 180


----------
Tested on: midbrain dopaminergic neurons
Experiment: Dopamine (DA) uptake assay in primary midbrain cultures
Format: cell-based, rat
Conditions: Rattus norvegicus, Neuron, compound concentration 0.6 μM; midbrain culture; read-out: DA uptake % of control
# Lookup of reported activity at 0.6 µM keyed by entry
Quantity Measured: activity at 0.6 µM (%)

[[record]]
given_smiles = "O=C(Nc1ccc(S(=O)(=O)Nc2nccs2)cc1)c1sc2cc(Cl)ccc2c1Cl"
assay_value = 140

[[record]]
given_smiles = "O=C(/C=C/c1cccc(Cl)c1Cl)Nc1ccc(S(=O)(=O)Nc2nccs2)cc1"
assay_value = 180

[[record]]
given_smiles = "O=C(/C=C/c1ccc(C(F)(F)F)cc1)Nc1ccc(S(=O)(=O)Nc2nccs2)cc1"
assay_value = 195

[[record]]
given_smiles = "O=C(/C=C/c1cccc(C(F)(F)F)c1Cl)Nc1ccc(S(=O)(=O)Nc2nccs2)cc1"
assay_value = 180

[[record]]
given_smiles = "O=C(/C=C/c1ccccc1Cl)Nc1ccc(S(=O)(=O)N2CCCCC2)cc1"
assay_value = 145

[[record]]
given_smiles = "O=C(/C=C/c1ccc(Br)cc1)Nc1ccc(S(=O)(=O)Nc2nc[nH]n2)cc1"
assay_value = 290

[[record]]
given_smiles = "O=C(Nc1ccc(S(=O)(=O)Nc2nccs2)cc1)c1sc2ccccc2c1Cl"
assay_value = 170

[[record]]
given_smiles = "O=C(/C=C/c1ccccc1)Nc1ccc(S(=O)(=O)N2CCCCC2)cc1"
assay_value = 125

[[record]]
given_smiles = "CC(C)(C)c1cc(Br)ccc1OCC(=O)Nc1ccc(S(=O)(=O)Nc2nccs2)cc1"
assay_value = 140

